- TARGET_ENTITY: UniProt P09619
- EXPERIMENT: Inhibition of PDGFRβ kinase activity (HTRF KinEASE-TK)
- EXPERIMENTAL_CONDITIONS: biochemical
MEASURED_QUANTITY: IC50

STRUCTURE_SMILES_STRING | MEASURED_QUANTITY | REPORTED_MEASUREMENT
Cc1cc(F)c(C(=O)Nc2ccc(OC(F)(F)F)cn2)cc1NC(=O)c1cnc(N)s1 | IC50 | 100 to 1000 nM

Query block: For UniProt P09619, give the measured IC50 of the entry Cc1cc(F)c(C(=O)Nc2ccc(CC3CC3)cn2)cc1NC(=O)c1cnc(N)s1
Result block: < 100 nM

Query block: Give measured IC50 for Cc1ncc(C(=O)Nc2cc(C(=O)Nc3ccc(CC(F)(F)F)cn3)c(F)cc2C)s1 (UniProt P09619).
Result block: > 1000 nM

Query block: Enter IC50 (test system UniProt P09619) for Cc1cc(F)c(C(=O)Nc2ccc(OC3CC3)cn2)cc1NC(=O)c1cnc(NC(=O)N2CCC2)s1
Result block: < 100 nM

---

Measured IC50 by item
- TARGET_ENTITY: PDGFRβ (Homo sapiens (Human), UniProt P09619)
- Sequence (P09619 33-1106): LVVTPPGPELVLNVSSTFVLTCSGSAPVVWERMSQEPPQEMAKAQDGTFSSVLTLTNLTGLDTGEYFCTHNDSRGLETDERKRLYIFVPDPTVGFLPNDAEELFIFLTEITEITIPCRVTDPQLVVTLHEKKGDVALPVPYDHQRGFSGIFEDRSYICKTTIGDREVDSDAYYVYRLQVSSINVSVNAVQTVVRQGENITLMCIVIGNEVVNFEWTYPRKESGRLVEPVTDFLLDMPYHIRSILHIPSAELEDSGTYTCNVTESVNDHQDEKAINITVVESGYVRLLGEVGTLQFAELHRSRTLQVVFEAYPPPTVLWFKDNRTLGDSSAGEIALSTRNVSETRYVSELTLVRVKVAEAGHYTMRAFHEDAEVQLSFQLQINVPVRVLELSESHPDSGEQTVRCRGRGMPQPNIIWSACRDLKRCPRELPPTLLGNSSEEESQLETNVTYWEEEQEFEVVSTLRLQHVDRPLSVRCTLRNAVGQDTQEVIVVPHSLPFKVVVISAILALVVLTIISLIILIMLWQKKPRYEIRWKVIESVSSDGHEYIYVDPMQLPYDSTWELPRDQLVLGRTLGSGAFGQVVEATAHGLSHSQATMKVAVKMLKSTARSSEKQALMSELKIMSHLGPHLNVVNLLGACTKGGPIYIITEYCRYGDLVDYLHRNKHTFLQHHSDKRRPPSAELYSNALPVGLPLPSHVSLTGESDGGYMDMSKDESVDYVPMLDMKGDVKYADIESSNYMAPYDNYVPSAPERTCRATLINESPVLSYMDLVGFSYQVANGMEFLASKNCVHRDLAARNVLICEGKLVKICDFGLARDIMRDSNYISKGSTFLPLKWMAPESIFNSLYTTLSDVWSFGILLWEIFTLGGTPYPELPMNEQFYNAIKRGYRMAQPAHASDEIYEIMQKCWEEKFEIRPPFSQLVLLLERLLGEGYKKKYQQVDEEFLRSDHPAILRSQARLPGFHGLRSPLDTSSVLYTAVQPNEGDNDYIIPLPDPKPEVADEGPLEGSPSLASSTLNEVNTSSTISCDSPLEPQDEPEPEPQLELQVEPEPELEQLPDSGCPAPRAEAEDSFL
- EXPERIMENT: Inhibition of PDGFRβ kinase activity (HTRF KinEASE-TK)
- EXPERIMENTAL_CONDITIONS: biochemical, HTRF KinEASE-TK

Completed entries (count: 6):
STRUCTURE_SMILES_STRING | MEASURED_QUANTITY | REPORTED_MEASUREMENT
Cc1cc(F)c(C(=O)NC2CN(C(=O)C3CC3)C2)cc1NC(=O)c1cnc(N)s1 | IC50 | > 1 µM
Cc1cc(F)c(C(=O)N[C@H]2CCOC2)cc1NC(=O)c1cnc(NC(=O)N2CCC2)s1 | IC50 | > 1 µM
Cc1ncc(C(=O)Nc2cc(C(=O)NCc3ccc(OC(F)(F)F)c(F)c3)c(F)cc2C)s1 | IC50 | > 1 µM
Nc1ncc(C(=O)Nc2cc(C(=O)Nc3ccc(OC(F)F)cn3)c(F)cc2Cl)s1 | IC50 | 0.1 to 1 µM
Cc1cc(F)c(C(=O)Nc2ccc(C3(C#N)CC3)cn2)cc1NC(=O)c1cnc(N)s1 | IC50 | 0.1 to 1 µM
Cc1ncc(C(=O)Nc2cc(C(=O)Nc3ccn(C(F)F)n3)c(F)cc2C)s1 | IC50 | > 1 µM

Query block: Under PDGFRβ (Homo sapiens (Human), UniProt P09619): report IC50 of Cc1ncc(C(=O)Nc2cc(C(=O)Nc3ccc(COC(F)F)cn3)c(F)cc2C)s1 .
Result block: > 1 µM

Query block: Please look at Cc1ncc(C(=O)Nc2cc(C(=O)NCc3ccc(OC(F)(F)F)cc3)c(F)cc2C)s1 and tell me its recorded IC50 on PDGFRβ (Homo sapiens (Human), UniProt P09619).
Result block: > 1 µM

---

- TARGET_ENTITY: PDGFRα (Homo sapiens (Human), UniProt P16234)
- Sequence (P16234 24-1089): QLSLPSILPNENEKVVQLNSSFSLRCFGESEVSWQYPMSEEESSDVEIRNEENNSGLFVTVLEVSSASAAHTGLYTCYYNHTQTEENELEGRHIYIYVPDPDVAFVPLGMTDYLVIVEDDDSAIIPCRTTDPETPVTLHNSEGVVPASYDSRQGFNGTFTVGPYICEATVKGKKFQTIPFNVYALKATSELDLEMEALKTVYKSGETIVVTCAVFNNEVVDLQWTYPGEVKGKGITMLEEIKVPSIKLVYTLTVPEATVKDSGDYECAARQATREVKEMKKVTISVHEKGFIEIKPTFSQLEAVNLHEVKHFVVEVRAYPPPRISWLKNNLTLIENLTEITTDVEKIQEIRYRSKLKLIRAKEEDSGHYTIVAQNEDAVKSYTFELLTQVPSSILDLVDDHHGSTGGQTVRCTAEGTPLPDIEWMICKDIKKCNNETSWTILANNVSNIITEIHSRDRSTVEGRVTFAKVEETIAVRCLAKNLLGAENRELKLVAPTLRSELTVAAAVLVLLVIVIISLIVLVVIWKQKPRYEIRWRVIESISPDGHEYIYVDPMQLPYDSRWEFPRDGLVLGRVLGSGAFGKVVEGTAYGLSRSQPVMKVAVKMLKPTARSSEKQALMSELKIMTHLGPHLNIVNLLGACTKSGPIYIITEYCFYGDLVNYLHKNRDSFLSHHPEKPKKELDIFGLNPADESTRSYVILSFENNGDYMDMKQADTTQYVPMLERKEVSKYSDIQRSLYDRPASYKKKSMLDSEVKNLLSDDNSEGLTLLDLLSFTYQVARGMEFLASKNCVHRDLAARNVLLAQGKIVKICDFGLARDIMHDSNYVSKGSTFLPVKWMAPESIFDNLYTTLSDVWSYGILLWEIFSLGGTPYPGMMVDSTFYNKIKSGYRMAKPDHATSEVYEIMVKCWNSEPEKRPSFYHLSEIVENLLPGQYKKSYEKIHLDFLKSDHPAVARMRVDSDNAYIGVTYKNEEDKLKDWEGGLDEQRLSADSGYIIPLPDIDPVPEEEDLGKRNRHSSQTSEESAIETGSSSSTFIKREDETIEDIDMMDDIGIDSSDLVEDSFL
- EXPERIMENT: Inhibition of PDGFRα kinase activity (HTRF KinEASE-TK)
- EXPERIMENTAL_CONDITIONS: biochemical, HTRF KinEASE-TK
pIC50: −log10 of the molar value.
MEASURED_QUANTITY: pIC50

COMPOUND | pIC50
Cc1ncc(C(=O)Nc2cc(C(=O)Nc3cnc(N4CC[C@H](F)C4)cn3)c(F)cc2C)s1 | < 6.00

Query block: Please respond with reported pIC50 (system PDGFRα (Homo sapiens (Human), UniProt P16234)) for COC(c1ccc(NC(=O)c2cc(NC(=O)c3cnc(N)s3)c(C)cc2F)nc1)C1CC1 (centres unmarked) .
Result block: < 6.00

Query block: Using PDGFRα (Homo sapiens (Human), UniProt P16234) as the test system, report measured pIC50 of Cc1cc(F)c(C(=O)Nc2ccc(OC3CC3)cn2)cc1NC(=O)c1cncs1 .
Result block: < 6.00

Query block: Given Cc1ncc(C(=O)Nc2cc(C(=O)Nc3ccc(CC(F)(F)F)cn3)c(F)cc2F)s1 , report its pIC50 on PDGFRα (Homo sapiens (Human), UniProt P16234).
Result block: < 6.00

Query block: Report pIC50 on PDGFRα (Homo sapiens (Human), UniProt P16234) for this entry: Cc1ncc(C(=O)Nc2cc(C(=O)NCc3ccccc3F)c(F)cc2C)s1
Result block: < 6.00

Query block: Give measured pIC50 for CC(C)Oc1ccc(NC(=O)c2cc(NC(=O)c3cnc(N)s3)c(F)cc2F)nc1 (PDGFRα (Homo sapiens (Human), UniProt P16234)).
Result block: < 6.00

Query block: Lab note: PDGFRα (Homo sapiens (Human), UniProt P16234) assay, enter pIC50 for Cc1cc(F)c(C(=O)Nc2ccc(COCC3CC3)cn2)cc1NC(=O)c1cnc(N)s1 here
Result block: < 6.00

---

pIC50 overview
- TARGET_ENTITY: CSF1R (Homo sapiens (Human), UniProt P07333)
- Sequence (P07333 20-972): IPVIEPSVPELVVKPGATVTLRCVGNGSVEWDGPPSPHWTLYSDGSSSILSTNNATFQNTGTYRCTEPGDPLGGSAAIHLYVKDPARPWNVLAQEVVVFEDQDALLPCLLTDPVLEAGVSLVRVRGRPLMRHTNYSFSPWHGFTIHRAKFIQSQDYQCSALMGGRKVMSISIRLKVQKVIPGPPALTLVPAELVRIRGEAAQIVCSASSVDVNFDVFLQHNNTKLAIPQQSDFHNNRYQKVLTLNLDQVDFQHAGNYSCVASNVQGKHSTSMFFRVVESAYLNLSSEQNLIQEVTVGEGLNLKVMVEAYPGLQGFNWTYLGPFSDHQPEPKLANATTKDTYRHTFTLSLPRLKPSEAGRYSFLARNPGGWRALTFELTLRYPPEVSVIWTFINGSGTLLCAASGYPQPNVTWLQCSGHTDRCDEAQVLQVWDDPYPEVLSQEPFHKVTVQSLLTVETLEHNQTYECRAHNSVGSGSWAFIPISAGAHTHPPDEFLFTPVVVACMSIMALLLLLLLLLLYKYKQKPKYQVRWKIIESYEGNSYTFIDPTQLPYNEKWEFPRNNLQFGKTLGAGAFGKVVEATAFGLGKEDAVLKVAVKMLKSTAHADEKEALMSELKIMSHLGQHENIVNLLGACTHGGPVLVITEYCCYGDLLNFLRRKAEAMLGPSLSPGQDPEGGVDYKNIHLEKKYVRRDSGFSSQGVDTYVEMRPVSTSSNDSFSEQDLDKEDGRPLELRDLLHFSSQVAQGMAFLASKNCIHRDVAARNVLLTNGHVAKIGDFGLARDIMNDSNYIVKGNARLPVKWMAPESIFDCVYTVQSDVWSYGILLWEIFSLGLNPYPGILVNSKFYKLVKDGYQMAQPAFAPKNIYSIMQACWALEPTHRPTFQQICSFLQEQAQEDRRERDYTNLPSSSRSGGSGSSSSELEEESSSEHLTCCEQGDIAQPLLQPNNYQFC
- EXPERIMENT: Inhibition of CSF1R kinase activity (HTRF KinEASE-TK)
- EXPERIMENTAL_CONDITIONS: biochemical, HTRF KinEASE-TK
pIC50: −log10 of the molar value.

STRUCTURE_SMILES_STRING | pIC50
Cc1ncc(NC(=O)c2cc(NC(=O)c3cnc(N)s3)c(C)cc2F)s1 | 6.00 to 7.00
Cc1cc(F)c(C(=O)NCCc2ccc(F)cc2)cc1NC(=O)c1cnc(N)s1 | 6.00 to 7.00
Cc1cc(F)c(C(=O)N[C@H]2CCOC2)cc1NC(=O)c1cnc(NC(=O)N2CCOCC2)s1 | < 6.00

Query block: Report pIC50 for Cc1cc(F)c(C(=O)Nc2nc(C)n(C)n2)cc1NC(=O)c1cnc(N)s1
Result block: < 6.00

Query block: Quick one: give measured pIC50 for CCc1ccc(NC(=O)c2cc(NC(=O)c3cnc(N)s3)c(F)cc2F)nc1
Result block: < 6.00

Query block: Determine its reported pIC50: Cc1cc(F)c(C(=O)Nc2ccc(OC(F)F)cc2)cc1NC(=O)c1cnc(N)s1
Result block: > 7.00

Query block: Give the reported value of pIC50 for this record: Cc1cc(F)c(C(=O)Nc2ccc3c(n2)COC3)cc1NC(=O)c1cnc(N)s1
Result block: < 6.00

Query block: Indicate its recorded pIC50; the molecule in question is Cc1ncc(C(=O)Nc2cc(C(=O)Nc3cc(CC4CC4)ncn3)c(F)cc2C)s1
Result block: 6.00 to 7.00

Query block: Report pIC50, nothing else, for this molecule: Cc1ccc(NC(=O)c2cc(NC(=O)c3cnc(N)s3)c(C)cc2F)nc1
Result block: < 6.00

Query block: Provide one value: measured pIC50 of COCC1(c2ccc(NC(=O)c3cc(NC(=O)c4cnc(N)s4)c(C)cc3F)nc2)CC1
Result block: 6.00 to 7.00

---

Listed next: entries and their corresponding IC50.
- TARGET_ENTITY: PDGFRα (Homo sapiens (Human))
- EXPERIMENT: Inhibition of PDGFRα kinase activity (HTRF KinEASE-TK)
- EXPERIMENTAL_CONDITIONS: biochemical, HTRF KinEASE-TK

Solved cases below.
MOLECULE | IC50
Cc1cc(F)c(C(=O)Nc2ccn(C(F)F)n2)cc1NC(=O)c1cnc(N)s1 [Example 181] | > 1000 nM
CCc1cc(F)c(C(=O)Nc2ccc(OC3CC3)cn2)cc1NC(=O)c1cnc(N)s1 [Example 237] | > 1000 nM
Cc1ncc(C(=O)Nc2cc(C(=O)Nc3cc(CC4CC4)ncn3)c(F)cc2C)s1 [Example 50] | 100 to 1000 nM
Cc1ncc(C(=O)Nc2cc(C(=O)Nc3cnc(OCC(F)F)cn3)c(F)cc2C)s1 [Example 86] | 100 to 1000 nM
Cc1ncc(C(=O)Nc2cc(C(=O)Nc3ccnc(C(F)(F)F)c3)c(F)cc2C)s1 [Example 25] | > 1000 nM
Cc1ncc(C(=O)Nc2cc(C(=O)Nc3ccc(OC4CC4)c(C)n3)c(F)cc2C)s1 [Example 62] | > 1000 nM

Query block: Consider the molecule Cc1cc(F)c(C(=O)Nc2ccc(OC3CC3)cc2)cc1NC(=O)c1cnc(N)s1 [Example 229] . State its measured IC50.
Result block: < 100 nM

Query block: Name the recorded IC50 of the molecule listed here: Cc1ncc(C(=O)Nc2cc(C(=O)Nc3cnc(N4CCC[C@@H]4C(F)(F)F)cn3)c(F)cc2C)s1 [Example 96]
Result block: > 1000 nM

Query block: Supply recorded IC50 for COCCn1ccc(NC(=O)c2cc(NC(=O)c3cnc(N)s3)c(C)cc2F)n1 [Example 154] here.
Result block: > 1000 nM
